- Test system: CAL-51
- protocolNotes: normalised response (% of control), CellTiter-Glo; higher = more viable cells (100 = DMSO, 0 = benzethonium chloride kill control)
- settings: incubation time: 72 h
Reported normalised response values follow for various compounds

compound	normalised response / %
CCN(CC)CCOc1ccc(C(=C(Cl)c2ccccc2)c2ccccc2)cc1 [Clomifene] (10000 nM)	98.5
CCc1cnn2c(NCc3ccc[n+]([O-])c3)cc(N3CCCC[C@H]3CCO)nc12 [Dinaciclib] (1000 nM)	14.3
NC1(c2ccc(-c3nc4ccn5c(=O)[nH]nc5c4cc3-c3ccccc3)cc2)CCC1 [MK-2206] (1000 nM)	84.2
N[C@@H](Cc1ccc(N(CCCl)CCCl)cc1)C(=O)O [Melphalan] (12500 nM)	0.13
NC(=O)NO [Hydroxyurea] (100000 nM)	29
COc1cc2c(cc1-c1c(C)noc1C)ncc1[nH]c(=O)n([C@H](C)c3ccccn3)c12 [I-BET151] (10000 nM)	59.5
Nc1nc(Cl)nc2c1ncn2[C@@H]1O[C@H](CO)[C@@H](O)[C@@H]1F [Clofarabine] (10000 nM)	17
CCCCCOC(=O)Nc1nc(=O)n([C@@H]2O[C@H](C)[C@@H](O)[C@H]2O)cc1F [Capecitabine] (10000 nM)	107
